Quantity of Animals Whose Tumors Vanished overview
System: human liver cancer cells Bel-7402 transplanted tumor
Format: in vivo
Settings: 100 mg/kg, PO, QDx11; 5 animals per group
Property Label: Quantity of Animals Whose Tumors Vanished

Smiles Representation: O=c1ccc(-c2ccc(N3CCC(O)CC3)c(C(F)(F)F)c2)n[nH]1
Recorded Number: 5
--
Smiles Representation: CN1CCN(c2ccc(-c3ccc(=O)[nH]n3)cc2C(F)(F)F)CC1
Recorded Number: 5
--
Smiles Representation: CCNc1ccc(-c2ccc(=O)[nH]n2)cc1C(F)(F)F
Recorded Number: 4
--
Smiles Representation: O=c1ccc(-c2ccc(N3CCOCC3)c(C(F)(F)F)c2)n[nH]1
Recorded Number: 5
--
Smiles Representation: O=c1ccc(-c2ccc(N3CCCCC3)c(C(F)(F)F)c2)n[nH]1
Recorded Number: 5
